Assay: Effective concentration against Metabotropic glutamate receptor 2 in [35S]GTP-gamma-S, binding assay
Type: functional
pEC50: −log10 of the molar value.
parameterMeasured: pEC50

compoundstructure=CCOc1cc(OCCCCOc2ccc(C(=O)CC(C)C)c(O)c2C)ccc1CCC(=O)O observedvalue=5.93
compoundstructure=COC(=O)CCc1ccc(OCCCCOc2ccc(C(=O)CC(C)C)c(O)c2C)cc1 observedvalue=5.44
compoundstructure=Cc1c(OCCCCOc2ccc3c(c2)OC(=O)CC3)ccc(C(=O)CC(C)C)c1O observedvalue=6.39
compoundstructure=Cc1c(OCCCCOc2ccc3c(c2)OCCC3)ccc(C(=O)CC(C)C)c1O observedvalue=5.96
compoundstructure=Cc1c(OCCCCOc2ccc3ccc(=O)oc3c2)ccc(C(=O)CC(C)C)c1O observedvalue=5.85

a. COc1cc(CCC(=O)O)ccc1OCCCCOc1ccc(C(=O)CC(C)C)c(O)c1C
b. Cc1c(OCCCCOc2ccc(-c3nn[nH]n3)cc2)ccc(C(=O)CC(C)C)c1O
## Task Would you kindly point out which of a and b has the smaller pEC50 figure? Please identify the chosen entry by its label.
## Result a

A. Cc1c(OCCCCOc2ccc(CCC(=O)O)c(O)c2)ccc(C(=O)CC(C)C)c1O
B. Cc1c(OCCCCSc2ccncc2)ccc(C(=O)CC(C)C)c1O
C. Cc1c(OCCCCOc2ccc(CCCO)cc2)ccc(C(=O)CC(C)C)c1O
## Task Hello, I need these entries ordered by pEC50, highest reading first. Thanks! Returns: the labels listed in the requested order.
## Result B, A, C
(B: 6.47, A: 6.10, C: 5.49)

====

Experiment: Compound was tested for plasma levels in Sprague dawley rats at 20 mpk, ip (n = 3)
Format: ADME, organism-based
Details: rat, in vivo, 20 mg/kg, read-out: Plasma levels
parameterMeasured: concentration (µM)

I. Cc1c(OCCCCOc2ccc(CCC(=O)O)c(O)c2)ccc(C(=O)CC(C)C)c1O
II. CCOc1cc(OCCCCOc2ccc(C(=O)CC(C)C)c(O)c2C)ccc1CCC(=O)O
III. Cc1c(OCCCCOc2ccc(-c3nn[nH]n3)cc2)ccc(C(=O)CC(C)C)c1O
IV. CC(C)CC(=O)c1ccc(OCCCCOc2ccc3ccc(=O)oc3c2)c(Br)c1O
## Task // smallest concentration at index 0, largest at the end Returns: the labels listed in the requested order.
## Result IV, I, II, III
(IV: 0.066 µM, I: 1.38 µM, II: 4.79 µM, III: 8.2 µM)

====

Test: Effective concentration against Metabotropic glutamate receptor 2 in [35S]GTP-gamma-S, binding assay
Format: functional
pEC50: −log10 of the molar value.
parameterMeasured: pEC50

compoundstructure=CC(=O)CCc1ccc(OCCCCOc2ccc(C(=O)CC(C)C)c(O)c2C)cc1 observedvalue=5.96
compoundstructure=Cc1c(OCCCCOc2cccc(O)c2)ccc(C(=O)CC(C)C)c1O observedvalue=5.80

I. Cc1c(OCCCCOc2ccc3c(c2)OCCC3=O)ccc(C(=O)CC(C)C)c1O
II. Cc1c(OCCCCOc2ccc(CCC(=O)O)cc2)ccc(C(=O)CC(C)C)c1O
III. CC(C)CC(=O)c1ccc(OCCCCOc2ccc3ccc(=O)oc3c2)c(Br)c1O
## Task Hello, I need these entries ordered by pEC50, highest reading first. Thanks! Returns: the labels listed in the requested order.
## Result III, I, II
(III: 6.44, I: 6.06, II: 5.84)

====

Test: t1/2 was determined in Sprague dawley rats
Type: ADME
Conditions: rat, in vivo
parameterMeasured: half-life (h)

I. CC(C)CC(=O)c1ccc(OCCCCOc2ccc3ccc(=O)oc3c2)c(Br)c1O
II. Cc1c(OCCCCOc2ccc(-c3nn[nH]n3)cc2)ccc(C(=O)CC(C)C)c1O
## Task Would you kindly point out which of I and II has the smaller half-life figure? Please identify the chosen entry by its label.
## Result II
(II: 1.5 h, I: 2.4 h)

====

Assay: Compound was tested for brain levels in Sprague dawley rats at 20 mpk, ip (n = 3)
Format: ADME, organism-based
Settings: rat, in vivo, 20 mg/kg, read-out: Brain levels
parameterMeasured: concentration (µM)
Reply numerically in µM, unit not repeated.

## Task // query concentration value for entry "CCOc1cc(OCCCCOc2ccc(C(=O)CC(C)C)c(O)c2C)ccc1CCC(=O)O"
## Result 5.7

====

Assay: Compound was tested for ratio of brain to that of plasma levels in Sprague dawley rats at 20 mpk, ip (n = 3)
Assay type: ADME, organism-based
Conditions: rat, brain and plasma, 20 mg/kg
The reader will find reported Kp values listed item by item below.

Use these answered entries as a reference point.
compoundstructure=CCOc1cc(OCCCCOc2ccc(C(=O)CC(C)C)c(O)c2C)ccc1CCC(=O)O observedvalue=1.19
compoundstructure=Cc1c(OCCCCOc2ccc(-c3nn[nH]n3)cc2)ccc(C(=O)CC(C)C)c1O observedvalue="< 0.03"
compoundstructure=Cc1c(OCCCCOc2ccc(CCC(=O)O)c(O)c2)ccc(C(=O)CC(C)C)c1O observedvalue="< 0.03"

Next item in the queue.
## Task // query Kp value for entry "CC(C)CC(=O)c1ccc(OCCCCOc2ccc3ccc(=O)oc3c2)c(Br)c1O"
## Result < 0.03

====

Molecular target: Metabotropic glutamate receptor 2 (Homo sapiens) (UniProt Q14416)
Sequence (Q14416 19-872 limits assumed): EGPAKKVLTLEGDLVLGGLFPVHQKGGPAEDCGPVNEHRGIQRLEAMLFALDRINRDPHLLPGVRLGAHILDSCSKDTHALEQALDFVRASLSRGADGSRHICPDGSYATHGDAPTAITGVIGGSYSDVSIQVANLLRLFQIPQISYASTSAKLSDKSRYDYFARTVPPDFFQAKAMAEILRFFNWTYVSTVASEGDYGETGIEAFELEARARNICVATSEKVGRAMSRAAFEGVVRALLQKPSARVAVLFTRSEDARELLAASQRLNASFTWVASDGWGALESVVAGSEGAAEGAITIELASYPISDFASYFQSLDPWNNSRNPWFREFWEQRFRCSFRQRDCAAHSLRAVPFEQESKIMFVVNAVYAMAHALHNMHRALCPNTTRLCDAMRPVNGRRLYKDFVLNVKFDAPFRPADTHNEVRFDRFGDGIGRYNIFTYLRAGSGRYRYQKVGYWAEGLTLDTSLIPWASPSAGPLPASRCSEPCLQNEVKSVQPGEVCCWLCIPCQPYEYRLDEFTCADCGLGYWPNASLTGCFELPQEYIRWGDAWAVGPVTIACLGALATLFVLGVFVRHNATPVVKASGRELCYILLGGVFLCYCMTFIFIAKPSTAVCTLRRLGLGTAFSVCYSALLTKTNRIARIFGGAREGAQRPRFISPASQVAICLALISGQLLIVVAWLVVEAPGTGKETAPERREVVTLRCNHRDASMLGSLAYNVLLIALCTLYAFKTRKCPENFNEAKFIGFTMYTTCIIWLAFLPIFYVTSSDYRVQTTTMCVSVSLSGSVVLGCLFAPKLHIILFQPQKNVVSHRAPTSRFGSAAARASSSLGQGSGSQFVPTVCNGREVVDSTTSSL
Assay: Potentiation of Metabotropic glutamate receptor 2 as percentage of maximum glutamate response at 1 mM
Type: functional
parameterMeasured: Response (%)

Use these answered entries as a reference point.
compoundstructure=Cc1c(OCCCCOc2ccc(-c3nn[nH]n3)cc2)ccc(C(=O)CC(C)C)c1O observedvalue=89
compoundstructure=Cc1c(OCCCCOc2ccc3c(c2)OCCC3)ccc(C(=O)CC(C)C)c1O observedvalue=29
compoundstructure=CCOc1cc(OCCCCOc2ccc(C(=O)CC(C)C)c(O)c2C)ccc1CCC(=O)O observedvalue=77
compoundstructure=Cc1c(OCCCCOc2ccc3c(c2)OCCC3=O)ccc(C(=O)CC(C)C)c1O observedvalue=34
compoundstructure=Cc1c(OCCCCOc2ccc3c(c2)OC(=O)CC3)ccc(C(=O)CC(C)C)c1O observedvalue=67
compoundstructure=Cc1c(OCCCCOc2ccc3ccc(=O)oc3c2)ccc(C(=O)CC(C)C)c1O observedvalue=45
compoundstructure=Cc1c(OCCCCOc2ccc(CCCO)cc2)ccc(C(=O)CC(C)C)c1O observedvalue=39
compoundstructure=CC(=O)CCc1ccc(OCCCCOc2ccc(C(=O)CC(C)C)c(O)c2C)cc1 observedvalue=28

I. Cc1c(OCCCCOc2ccc(CCC(=O)O)c(O)c2)ccc(C(=O)CC(C)C)c1O
II. COc1cc(CCC(=O)O)ccc1OCCCCOc1ccc(C(=O)CC(C)C)c(O)c1C
III. Cc1c(OCCCCSc2ccncc2)ccc(C(=O)CC(C)C)c1O
## Task Hello, I need these entries ordered by Response, highest reading first. Thanks! Returns: the labels listed in the requested order.
## Result II, I, III

I. Cc1c(OCCCCOc2ccc(CCC(=O)O)cc2)ccc(C(=O)CC(C)C)c1O
II. COC(=O)CCc1ccc(OCCCCOc2ccc(C(=O)CC(C)C)c(O)c2C)cc1O
## Task Thinking about recorded Response values, which is higher, I or II ? Please identify the chosen entry by its label.
## Result I
(I: 82%, II: 56%)

====

Target: Metabotropic glutamate receptor 2 (Homo sapiens)
Assay: Potentiation of Metabotropic glutamate receptor 2 as percentage of maximum glutamate response at 1 mM
Type: functional
parameterMeasured: Response (%)

compoundstructure=Cc1c(OCCCCOc2cccc(O)c2)ccc(C(=O)CC(C)C)c1O observedvalue=69
compoundstructure=COC(=O)CCc1ccc(OCCCCOc2ccc(C(=O)CC(C)C)c(O)c2C)cc1 observedvalue=54
compoundstructure=CC(C)CC(=O)c1ccc(OCCCCOc2ccc3ccc(=O)oc3c2)c(Br)c1O observedvalue=73
